assay: Metabolic stability in rat liver microsomes assessed as elimination rate constant at 1 uM incubated upto 60 mins in presence of NADPH by LC-MS/MS analysis; format: ADME, Microsome
metric_name: k el at 1 h, 1 µM (s⁻¹)
Give the number; s⁻¹ is assumed, so skip it.

Tell me the measured k el at 1 h, 1 µM of `CCN(CC)C/C=C/C(=O)Nc1cc2c(Nc3ccc(F)c(Cl)c3)ncnc2cc1OCc1cn(CCCCCCCC(=O)N[C@H](C(=O)N2C[C@H](O)C[C@H]2C(=O)N[C@H](C)c2ccc(-c3scnc3C)cc2)C(C)(C)C)nn1` , please. 6.67e-05
